Target: UniProt:Q14790
Sequence (Q14790 217-374 limits assumed): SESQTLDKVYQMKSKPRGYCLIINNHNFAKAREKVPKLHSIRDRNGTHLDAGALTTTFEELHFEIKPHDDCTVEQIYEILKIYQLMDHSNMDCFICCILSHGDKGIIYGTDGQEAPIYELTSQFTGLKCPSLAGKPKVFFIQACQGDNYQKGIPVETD
Sequence (Q14790 385-479 limits assumed): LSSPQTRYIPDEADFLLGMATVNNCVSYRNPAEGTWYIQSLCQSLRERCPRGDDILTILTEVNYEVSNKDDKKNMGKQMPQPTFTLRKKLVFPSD
Experiment: Caspase-8 progress curve inhibition assay
Details: second-order rate constant; Ac-DEVD-AMC substrate; Pipes buffer pH 7.2
reported_property: k2 Caspase-8

The value of k2 Caspase-8 measured for the compound CC(C)C[C@H](NC(=O)OCc1ccccc1)C(=O)N[C@@H](CCC(=O)O)C(=O)N[C@H](C(=O)NN(CC(=O)O)C(=O)/C=C/C(=O)Nc1ccccc1)[C@@H](C)O (relative stereo) turned out to be 176,000 M^−1s^−1

The value of k2 Caspase-8 measured for the compound CCOC(=O)/C=C\C(=O)N(CC(=O)O)NC(=O)[C@@H](NC(=O)[C@H](CCC(=O)O)NC(=O)[C@H](CC(=O)O)NC(=O)OCc1ccccc1)C(C)C (relative stereo) [Cbz-Asp-Glu-Val-AAsp-CH═CH—COOEt (cis)] turned out to be 181,000 M^−1s^−1

* * *

Target: Caspase-3 (Homo sapiens, UniProt P42574)
Sequence (P42574 29-175 limits assumed): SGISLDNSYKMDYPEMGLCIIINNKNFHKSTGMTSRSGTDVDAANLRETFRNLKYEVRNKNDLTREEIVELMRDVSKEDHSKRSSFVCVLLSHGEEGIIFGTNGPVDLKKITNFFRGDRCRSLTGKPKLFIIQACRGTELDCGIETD
Sequence (P42574 176-277 limits assumed): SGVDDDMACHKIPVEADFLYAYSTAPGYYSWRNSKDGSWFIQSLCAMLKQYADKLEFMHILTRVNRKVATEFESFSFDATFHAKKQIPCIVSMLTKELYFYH
Test: Caspase-3 progress curve inhibition assay
Settings: second-order rate constant; Ac-DEVD-AMC substrate; Pipes buffer pH 7.2
reported_property: k2 Caspase-3

The value of k2 Caspase-3 measured for the molecule CC(C)[C@H](NC(=O)[C@H](CCC(=O)O)NC(=O)[C@H](CC(=O)O)NC(=O)OCc1ccccc1)C(=O)NN(CC(=O)O)C(=O)/C=C/C(=O)N(C)CCc1ccccc1 (relative stereo) turned out to be 1,180,000 M^−1s^−1

The value of k2 Caspase-3 measured for the molecule CC(C)C[C@H](NC(=O)OCc1ccccc1)C(=O)N[C@@H](CCC(=O)O)C(=O)N[C@H](C(=O)NN(CC(=O)O)C(=O)/C=C/C(=O)N(C)CCc1ccccc1)[C@@H](C)O (relative stereo) turned out to be 2,620 M^−1s^−1

The value of k2 Caspase-3 measured for the molecule CC[C@H](C)[C@H](NC(=O)OCc1ccccc1)C(=O)N[C@@H](CCC(=O)O)C(=O)N[C@H](C(=O)NN(CC(=O)O)C(=O)/C=C/C(=O)OCc1ccccc1)[C@@H](C)O (relative stereo) turned out to be 2,300 M^−1s^−1

The value of k2 Caspase-3 measured for the molecule CC(C)C[C@H](NC(=O)OCc1ccccc1)C(=O)N[C@@H](CCC(=O)O)C(=O)N[C@H](C(=O)NN(CC(=O)O)C(=O)/C=C/C(=O)NCCc1ccccc1)[C@@H](C)O (relative stereo) turned out to be 5,400 M^−1s^−1

The value of k2 Caspase-3 measured for the molecule CC(C)C[C@H](NC(=O)OCc1ccccc1)C(=O)N[C@@H](CCC(=O)O)C(=O)N[C@H](C(=O)NN(CC(=O)O)C(=O)/C=C/C(=O)N(C)Cc1ccccc1)[C@@H](C)O (relative stereo) turned out to be 6,000 M^−1s^−1

The value of k2 Caspase-3 measured for the molecule CC(C)[C@H](NC(=O)[C@H](CCC(=O)O)NC(=O)[C@H](CC(=O)O)NC(=O)OCc1ccccc1)C(=O)NN(CC(=O)O)C(=O)/C=C/C(=O)NCCc1ccccc1 (relative stereo) turned out to be 1,950,000 M^−1s^−1

The value of k2 Caspase-3 measured for the molecule CC(C)[C@H](NC(=O)[C@H](CCC(=O)O)NC(=O)[C@H](CC(=O)O)NC(=O)OCc1ccccc1)C(=O)NN(CC(=O)O)C(=O)/C=C/C(=O)N(C)Cc1ccccc1 (relative stereo) turned out to be 2,640,000 M^−1s^−1

The value of k2 Caspase-3 measured for the molecule CC(C)C[C@H](NC(=O)OCc1ccccc1)C(=O)N[C@@H](CCC(=O)O)C(=O)N[C@H](C(=O)NN(CC(=O)O)C(=O)/C=C/C(=O)N(Cc1ccccc1)Cc1ccccc1)[C@@H](C)O (relative stereo) turned out to be 8,630 M^−1s^−1

The value of k2 Caspase-3 measured for the molecule CCOC(=O)/C=C/C(=O)N(CC(=O)O)NC(=O)[C@@H](NC(=O)[C@H](CCC(=O)O)NC(=O)[C@@H](NC(=O)OCc1ccccc1)[C@@H](C)CC)[C@@H](C)O (relative stereo) turned out to be 6,740 M^−1s^−1

The value of k2 Caspase-3 measured for the molecule CC(C)[C@H](NC(=O)[C@H](CCC(=O)O)NC(=O)[C@H](CC(=O)O)NC(=O)OCc1ccccc1)C(=O)NN(CC(=O)O)C(=O)C=CC(=O)N(Cc1cccc2ccccc12)Cc1cccc2ccccc12 turned out to be 5,620,000 M^−1s^−1

The value of k2 Caspase-3 measured for the molecule CC(C)[C@H](NC(=O)[C@H](CCC(=O)O)NC(=O)[C@H](CC(=O)O)NC(=O)OCc1ccccc1)C(=O)NN(CC(=O)O)C(=O)/C=C/C(=O)c1ccccc1 (relative stereo) turned out to be 122,000 M^−1s^−1

The value of k2 Caspase-3 measured for the molecule CCCCNC(=O)/C=C/C(=O)N(CC(=O)O)NC(=O)[C@@H](NC(=O)OCc1ccccc1)C(C)C (stereo in doubt) turned out to be 184 M⁻¹ s⁻¹

The value of k2 Caspase-3 measured for the molecule CC[C@H](C)[C@H](NC(=O)OCc1ccccc1)C(=O)N[C@@H](CCC(=O)O)C(=O)N[C@H](C(=O)NN(CC(=O)O)C(=O)/C=C/C(=O)N(Cc1ccccc1)Cc1ccccc1)[C@@H](C)O (relative stereo) turned out to be 9,570 M^−1s^−1

The value of k2 Caspase-3 measured for the molecule CC(C)C[C@H](NC(=O)OCc1ccccc1)C(=O)N[C@@H](CCC(=O)O)C(=O)N[C@H](C(=O)NN(CC(=O)O)C(=O)/C=C/C(=O)OCc1ccccc1)[C@@H](C)O (relative stereo) turned out to be 4,600 M^−1s^−1

The value of k2 Caspase-3 measured for the molecule CC(C)C[C@H](NC(=O)OCc1ccccc1)C(=O)N[C@@H](CCC(=O)O)C(=O)N[C@H](C(=O)NN(CC(=O)O)C(=O)/C=C/C(=O)NCc1ccccc1)[C@@H](C)O (relative stereo) turned out to be 1,120 M^−1s^−1

The value of k2 Caspase-3 measured for the molecule CC[C@H](C)[C@H](NC(=O)OCc1ccccc1)C(=O)N[C@@H](CCC(=O)O)C(=O)N[C@H](C(=O)NN(CC(=O)O)C(=O)/C=C/C(=O)Nc1ccccc1)[C@@H](C)O (relative stereo) turned out to be 7,030 M^−1s^−1

The value of k2 Caspase-3 measured for the molecule CCOC(=O)/C=C/C(=O)N(CC(=O)O)NC(=O)[C@@H](NC(=O)[C@H](CCC(=O)O)NC(=O)OCc1ccccc1)C(C)C (relative stereo) turned out to be 38,600 M^−1s^−1
